tested on: SEM cells; experiment: cell viability relative to DMSO control; higher = less cytotoxic; details: RPMI 5 mM glucose + 10% dialyzed FBS; 48 h; 0.569 µM
property.label: cell viability (%)

chemical.string: CC(C)[C@]12O[C@H]1[C@@H]3O[C@@]34[C@@]5(C)CC\C6=C(COC6=O)/[C@@H]5C[C@@H]7O[C@]47[C@@H]2O
property.label: cell viability
measurement.unit: %
val: 6.55

chemical.string: C/C=C(\C)C(=O)N[C@@H](c1ccccc1)[C@@H](O)C(=O)O[C@H]1C[C@@]2(O)[C@@H](OC(=O)c3ccccc3)[C@@H]3[C@]4(OC(C)=O)CO[C@@H]4C[C@H](O)[C@@]3(C)C(=O)[C@H](OC(C)=O)C(=C1C)C2(C)C
property.label: cell viability
measurement.unit: %
val: 13.1

chemical.string: COc1cc(N2CCC(N3CCN(C)CC3)CC2)ccc1Nc1ncc(Cl)c(Nc2ccccc2[S+](=O)([O-])C(C)C)n1
property.label: cell viability
measurement.unit: %
val: 90.1

chemical.string: CC1=CC/2=C(C=C1C)N(C[C@@H](O)[C@@H](O)[C@@H](O)CO)C/3=N/C(=O)NC(=O)C3=N2
property.label: cell viability
measurement.unit: %
val: 118

* * *

system: NOMO1; test: cell viability relative to DMSO control; higher = less cytotoxic; settings: RPMI 5 mM glucose + 10% dialyzed FBS; 48 h; 15.4 µM
Cut-off 80% on cell viability: below means Fulfilled, at or above means Not fulfilled.

molecule: CC(C)(Sc1cc(C(C)(C)C)c(O)c(C(C)(C)C)c1)Sc1cc(C(C)(C)C)c(O)c(C(C)(C)C)c1
assigned.class: Not fulfilled

molecule: COCCCC/C(=N\OCCN)c1ccc(C(F)(F)F)cc1
assigned.class: Fulfilled

molecule: COc1ccc(-n2c(C)c([N+](=O)[O-])c3ccc(O)cc32)cc1
assigned.class: Not fulfilled

molecule: CC(C)(C)NCC(O)c1ccc(O)c(CO)c1 (configuration not stated)
assigned.class: Fulfilled

molecule: CC(=O)N(O)CCCCCNC(=O)CCC(=O)N(O)CCCCCNC(=O)CCC(=O)N(O)CCCCCN.C[S+](=O)([O-])O
assigned.class: Fulfilled

molecule: Cc1nc2ccc(CN(C)c3ccc(C(=O)N[C@@H](CCC(=O)O)C(=O)O)s3)cc2c(=O)[nH]1
assigned.class: Fulfilled

molecule: CCOC(=O)c1c(CSc2ccccc2)n(C)c2cc(Br)c(O)c(CN(C)C)c12
assigned.class: Not fulfilled

* * *

Reported cell viability is given for each of the following compounds.
test system: NOMO1; assay: cell viability relative to DMSO control; higher = less cytotoxic; details: HPLM + 10% dialyzed FBS; 48 h; 5.12 µM

compound: COC(=O)[C@H](Cc1ccccc1)NC(=O)[C@@H](N)CC(=O)O
cell viability, %: 93.6
--
compound: Clc1ccc(C(c2ccc(Cl)cc2)[n+]2ccn(CC(OCc3ccc(Cl)cc3Cl)c3ccc(Cl)cc3Cl)c2)cc1 (stereo not drawn)
cell viability, %: 101
--
compound: CC(C)(Sc1cc(C(C)(C)C)c(O)c(C(C)(C)C)c1)Sc1cc(C(C)(C)C)c(O)c(C(C)(C)C)c1
cell viability, %: 79.1
--
compound: Cc1cnc(Nc2cccc(CN3CCOCC3)c2)nc1Nc1cccc([S+](=O)([O-])NC(C)(C)C)c1
cell viability, %: 61.5
--
compound: O=C(O)c1cccc(-c2noc(-c3ccccc3F)n2)c1
cell viability, %: 110
--
compound: COc1cc(N2CCN(C)CC2)ccc1Nc1nc(N)c(C(=O)c2c(Cl)cccc2Cl)s1
cell viability, %: 107
--
compound: CN(C[C@@H]1COCCO1)[S+]([O-])(=O)NC2=CC3=C(C=C2)\C=C/C4=C(C=C(C=N4)C5=C[N](C)N=C5)C3=O
cell viability, %: 41.1
--
compound: CC(=O)N(O)CCCCCNC(=O)CCC(=O)N(O)CCCCCNC(=O)CCC(=O)N(O)CCCCCN.C[S+](=O)([O-])O
cell viability, %: 27.7

* * *

system: P12-Ichikawa; assay: AUC of viability dose-response curve (% viability x log10 dose units); higher = less sensitive; conditions: RPMI 5 mM glucose + 10% FBS; 48 h
Reported AUC of viability dose-response curve is given for each of the following molecules.

molecule: CCN1\C=C(C(O)=O)/C(=O)C2=C1C(=C(N3CCNC(C)C3)C(=C2)F)F (stereo not given)
AUC of viability dose-response curve: 457
--
molecule: NC(=O)c1nnn(Cc2cc(Cl)c(C(=O)c3ccc(Cl)cc3)c(Cl)c2)c1N
AUC of viability dose-response curve: 465
--
molecule: CN(C)CC(=O)N1CCC(CC1)C2=CC=C(NC(=O)C3=NC(=C[NH]3)C#N)C(=C2)\C4=C\CCCC4
AUC of viability dose-response curve: 463
--
molecule: CCCCN1CCC(CNC(=O)c2c3n(c4ccccc24)CCCO3)CC1
AUC of viability dose-response curve: 459
--
molecule: Cc1nnc(C(=O)NC(C)(C)c2nc(C(=O)NCc3ccc(F)cc3)c(O)c(=O)n2C)o1
AUC of viability dose-response curve: 454

* * *

tested on: P12-Ichikawa; assay: cell viability relative to DMSO control; higher = less cytotoxic; conditions: RPMI 5 mM glucose + 10% dialyzed FBS; 48 h; 0.19 µM
Reported cell viability is given for each of the following compounds.
property.label: cell viability (%)

chemical.string: CC1(C)CCC(C)(C)c2cc(NC(=O)c3ccc(C(=O)O)cc3)ccc21
tgt: P12-Ichikawa
val: 105
//
chemical.string: O=C1c2ccccc2-c2n[nH]c3cccc1c23
tgt: P12-Ichikawa
val: 100
//
chemical.string: COc1cc(N2CCC(N3CCN(C)CC3)CC2)ccc1Nc1ncc(Cl)c(Nc2ccccc2[S+](=O)([O-])C(C)C)n1
tgt: P12-Ichikawa
val: 171
//
chemical.string: Nc1cc(N2CCCCC2)nc(N)[n+]1[O-]
tgt: P12-Ichikawa
val: 114
//
chemical.string: CC(=O)OCC(=O)[C@@]1(O)CC[C@H]2[C@@H]3CCC/4=C/C(=O)/C=C\[C@]4(C)[C@H]3[C@@H](O)C[C@]12C
tgt: P12-Ichikawa
val: 77.4

* * *

test system: NOMO1; assay: cell viability relative to DMSO control; higher = less cytotoxic; conditions: HPLM + 10% dialyzed FBS; 48 h; 0.0632 µM
Reported cell viability is given for each of the following compounds.
property.label: cell viability (%)

compound: c1ccc2c(CN3CCNCC3)cccc2c1
property.label: cell viability
val: 112
--
compound: CN(C)c1ccc(-c2nc3c(N4CCN(CC(=O)Nc5nccs5)CC4)c(Cl)cnc3[nH]2)cc1
property.label: cell viability
val: 113
--
compound: Cc1cccc(-c2[nH]c(C(C)(C)C)nc2-c2ccc3nccnc3c2)n1
property.label: cell viability
val: 111
--
compound: OC1=C(Cl)C=C(N\C2=C(\C(=O)NC2=O)C3=C(C=CC=C3)[N+]([O-])=O)C=C1
property.label: cell viability
val: 120
--
compound: OC1CCC(CC1)N2\C=N/C3=C(C2=N)C(=C([N]3CC4=CC=CC=C4)C5=CC=CC=C5)C6=CC=CC=C6 (stereo not drawn)
property.label: cell viability
val: 142
--
compound: NC(=O)N1CCC(CC(=O)N2CCC([C@H]3c4ncc(Br)cc4CCc4cc(Cl)cc(Br)c43)CC2)CC1
property.label: cell viability
val: 117
--
compound: CCCC[S+](=N)([O-])CCC(N)C(=O)O (stereo not drawn)
property.label: cell viability
val: 157
--
compound: CCN1\C=C(C(O)=O)/C(=O)C2=C1C(=C(N3CCNC(C)C3)C(=C2)F)F (stereo not drawn)
property.label: cell viability
val: 118
--
compound: CC(C)[C@H]1C(=O)N[C@H](CO)Cc2c[nH]c3cccc(c23)N1C
property.label: cell viability
val: 125
--
compound: O=C(O)c1cccc(-c2noc(-c3ccccc3F)n2)c1
property.label: cell viability
val: 112
--
compound: CN1CCN(CC1)C2=CC3=C([NH]C(=N3)C/4=C(\N)C5=C(F)C=CC=C5NC4=O)C=C2
property.label: cell viability
val: 96.3
--
compound: O=C(NOCC1CC1)c1ccc(F)c(F)c1Nc1ccc(I)cc1Cl
property.label: cell viability
val: 99.1
--
compound: N#Cc1cc(NC(=O)Nc2nnc(-c3ccncc3)s2)ccc1-c1cn[nH]c1
property.label: cell viability
val: 116
--
compound: Clc1ccc(C(c2ccccc2Cl)C(Cl)Cl)cc1 (stereo not drawn)
property.label: cell viability
val: 120
--
compound: CN(C)C(=O)[C@H](O)[C@H](Cc1ccccc1)NC(=O)c1cc2cc(Cl)ccc2[nH]1
property.label: cell viability
val: 122
--
compound: CC(=O)N(O)CCCCCNC(=O)CCC(=O)N(O)CCCCCNC(=O)CCC(=O)N(O)CCCCCN.C[S+](=O)([O-])O
property.label: cell viability
val: 34
--
compound: C[C@@H](Cc1cc2c(c(C(N)=O)c1)N(CCCO)CC2)NCCOc1ccccc1OCC(F)(F)F
property.label: cell viability
val: 107
--
compound: Clc1ccc(C(c2ccc(Cl)cc2)[n+]2ccn(CC(OCc3ccc(Cl)cc3Cl)c3ccc(Cl)cc3Cl)c2)cc1 (stereo not drawn)
property.label: cell viability
val: 107
